Give koff for every item shown.
# System under test: T1, Macaca fascicularis (mf) RET.mmh (Macaca fascicularis)
# T1 construct: also called monkey RET
# T1 chain: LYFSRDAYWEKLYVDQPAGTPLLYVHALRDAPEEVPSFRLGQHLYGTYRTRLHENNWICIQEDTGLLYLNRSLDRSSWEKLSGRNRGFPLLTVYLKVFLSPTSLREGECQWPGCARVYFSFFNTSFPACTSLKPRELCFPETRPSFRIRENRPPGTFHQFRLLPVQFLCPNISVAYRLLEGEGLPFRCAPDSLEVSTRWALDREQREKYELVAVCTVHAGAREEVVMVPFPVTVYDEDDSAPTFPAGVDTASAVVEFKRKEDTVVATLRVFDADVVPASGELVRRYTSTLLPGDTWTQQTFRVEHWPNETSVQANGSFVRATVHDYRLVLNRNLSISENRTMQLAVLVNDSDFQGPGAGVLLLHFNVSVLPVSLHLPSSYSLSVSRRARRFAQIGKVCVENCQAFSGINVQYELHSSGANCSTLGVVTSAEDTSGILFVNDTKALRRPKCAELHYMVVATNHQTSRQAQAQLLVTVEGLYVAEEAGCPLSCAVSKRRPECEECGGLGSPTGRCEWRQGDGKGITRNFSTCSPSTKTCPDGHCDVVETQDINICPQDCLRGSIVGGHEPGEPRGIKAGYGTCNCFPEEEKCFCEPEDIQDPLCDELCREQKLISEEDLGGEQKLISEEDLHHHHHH
# Assay comment: SPR Biacore T200, mAb capture, 25 C
Answers without a unit are incomplete; give the number and then its unit.

Below, each entry is followed by its recorded koff result.
- Binder: "H4H8084P (antibody, human IgG4, V domains shown, human IgG4 Fc (H4H prefix)) VH: QVQLVESGGGVVQPGRSLRLSCEASGFTFRNYGMHWVRQAPGKGLDWVSTIYYDGSDEYYSDSVKGRFTISRDNSKNTLYLQMNSLRAEDTAVYYCARDPPSFRYFDYWGQGTLVTVSS VL: DIQMTQSPSTLSASVGDRVTITCRASQSIRSWLTWYQQKPGKAPKVLIYKASTLERGVPSRFSGSGSGTEFTLTISSLQPEDFATYYCHQYSSYSYTFGQGTKLEIK"
  Reported metric: "koff"
  Value measured: "0.000393 s⁻¹"
- Binder: "H4H8071P (antibody, human IgG4, V domains shown, human IgG4 Fc (H4H prefix)) VH: EVQLVESGGGLVQPGGSLRLSCAASGFTFTTYFMSWVRQAPGKGLEWVSGISGSGTSTFYVDSMKGRFTISRDNSKNTLYLQMNSLRVEDTAVYFCAKENTYGHFDFWGQGTLVTVSS VL: DIQLTQSPSFLSASVGDRVTITCWASQDISSHLAWYQQKPGKAPKVLIYDASTLQSGVPSRISGSGSGTEFTLTISSLQPEDFAAYYCQQLDGYPYTFGQGTKLEIK"
  Reported metric: "koff"
  Value measured: "0.000272 s⁻¹"

# input binder: H4H8056P (antibody, human IgG4, V domains shown, human IgG4 Fc (H4H prefix)) VH: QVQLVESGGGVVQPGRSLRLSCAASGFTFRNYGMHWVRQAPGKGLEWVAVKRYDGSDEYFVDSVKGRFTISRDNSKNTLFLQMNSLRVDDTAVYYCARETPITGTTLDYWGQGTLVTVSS VL: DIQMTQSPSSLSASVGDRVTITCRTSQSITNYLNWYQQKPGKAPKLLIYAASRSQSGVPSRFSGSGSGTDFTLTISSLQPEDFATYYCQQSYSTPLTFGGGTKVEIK ; wanted: its koff
0.000583 s⁻¹
